- TESTED_SYSTEM: Human recombinant FAP (Homo sapiens, UniProt Q12884)
- Sequence (Q12884 whole entry): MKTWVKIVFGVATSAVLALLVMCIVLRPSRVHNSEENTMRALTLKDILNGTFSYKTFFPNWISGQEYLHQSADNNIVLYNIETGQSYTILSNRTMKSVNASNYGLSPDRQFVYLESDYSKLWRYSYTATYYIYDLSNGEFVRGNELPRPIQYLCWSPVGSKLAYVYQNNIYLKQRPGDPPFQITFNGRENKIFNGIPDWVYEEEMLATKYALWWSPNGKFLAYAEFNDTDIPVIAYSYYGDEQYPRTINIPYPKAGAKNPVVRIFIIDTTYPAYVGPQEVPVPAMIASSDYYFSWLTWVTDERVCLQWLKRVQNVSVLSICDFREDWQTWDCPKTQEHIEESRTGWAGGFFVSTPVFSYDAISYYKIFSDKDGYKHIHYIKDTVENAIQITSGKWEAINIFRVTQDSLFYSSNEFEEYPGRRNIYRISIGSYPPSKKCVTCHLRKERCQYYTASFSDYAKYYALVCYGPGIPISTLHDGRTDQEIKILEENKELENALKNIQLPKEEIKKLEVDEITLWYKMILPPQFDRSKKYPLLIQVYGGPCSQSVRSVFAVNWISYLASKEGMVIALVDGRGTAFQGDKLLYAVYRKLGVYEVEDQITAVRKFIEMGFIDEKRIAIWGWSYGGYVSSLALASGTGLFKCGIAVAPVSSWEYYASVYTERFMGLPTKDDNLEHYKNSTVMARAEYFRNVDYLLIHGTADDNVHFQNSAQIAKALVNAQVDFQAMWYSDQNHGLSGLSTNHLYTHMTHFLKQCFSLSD
- PROTOCOL_DETAILS: FRET-based FAP protease activity assay
- Type: biochemical
- Set-up: purchased R&D systems 3715-SE
- CONDITIONS_USED: pIC50 Category (Activity), recombinant human FAP, FRET substrate, 37° C.
pIC50: −log10 of the molar value. Numbered stars: 1 amine (or outer) side, 2 acyl side, 3 side chain; on linkers, the order of the positions; unused ones are H or OH. Bridge positions count the residues as written; N and C are the ends. Square brackets hold non-standard residues; d marks the D form. Peptide text beside a SMILES is read from it. * marks the point of attachment. ξ: configuration not given here. X19 = NC(=O)[C@H](CCCCNC(=O)CN1CCN(CC(=O)O)CCN(CC(=O)O)CCN(CC(=O)O)CC1)NC(=O)CCC(=O)NCCCOCCOCCNCCCN*; X4 = O=C1CN2CCN3CCN(CC(=O)N4CCN(Cc5cc(C[*:1])cc(C[*:2])c5)CC4)CCN(CC2)CC(=O)[O][In]([O]1)[O]C(=O)C3; X8 = O=C1CN2CCN3CCN(CC(=O)N4CCN(Cc5cc(C[*:1])cc(C[*:2])c5)CC4)CCN(CC2)CC(=O)[O][Ga]([O]1)[O]C(=O)C3; X47 = O=C(O)CN1CCN(CC(=O)O)CCN(CC(=O)NCCCCCNC(=O)CCC(=O)NCCCOCCOCCOCCCN*)CCN(CC(=O)O)CC1; mXylylene = c1cc(C[*:1])cc(C[*:2])c1; αMeF = C[C@](N)(Cc1ccccc1)C(=O)O; Hexanoyl = CCCCCC(=O)*; ξM = CSCCC(N)C(=O)O
PARAMETER_MEASURED: pIC50

>  <COMPOUND>
CSCC[C@H](NC(C)=O)C(=O)N[C@H]1CSCc2cccc(c2)CSC[C@@H](C(=O)N[C@@H](CC(=O)O)C(=O)N[C@@H](Cc2c[nH]cn2)C(=O)N2Cc3ccccc3C[C@H]2C(=O)N[C@@H](CCCNC(=N)N)C(=O)N[C@@H](CC(=O)O)C(N)=O)NC(=O)[C@H](Cc2ccccc2)NC(=O)[C@H](CCC(=O)O)NC(=O)[C@H]2NC(=O)[C@@H]3C(CCN3C(=O)[C@@H]3CCCN3C1=O)[C@H]2O

>  <pIC50>
> 8.00

$$$$
>  <COMPOUND>
CCCCCC(=O)N[C@H]1CSCc2cccc(c2)CSC[C@@H](C(N)=O)NC(=O)[C@H](Cc2ccccc2)NC(=O)[C@H](CCC(N)=O)NC(=O)[C@H]([C@@H](C)O)NC(=O)[C@@H]2CCCN2C(=O)[C@@H]2CCCN2C1=O

>  <pIC50>
> 8.00

$$$$
>  <COMPOUND>
CCCCCC(=O)N[C@H]1CSCc2cc(cc(CN3CCN(C(=O)CN4CCN5CCN6CCN(CC4)CC(=O)[O][In]([O]C(=O)C6)[O]C(=O)C5)CC3)c2)CSC[C@@H](C(=O)N[C@@H](CC(=O)O)C(N)=O)NC(=O)[C@H](Cc2ccccc2)NC(=O)[C@H](CCC(N)=O)NC(=O)[C@H]([C@@H](C)O)NC(=O)[C@@H]2CCCN2C(=O)[C@@H]2CCCN2C1=O [3BP-3590] (Hexanoyl-CPPTQFCD-NH2; linker 1-7 via X4)

>  <pIC50>
> 8.00

$$$$
>  <COMPOUND>
CSCC[C@H](NC(C)=O)C(=O)N[C@H]1CSCc2cccc(c2)CSC[C@@H](C(=O)N[C@@H](CC(=O)O)C(=O)N[C@@H](Cc2c[nH]cn2)C(=O)N[C@@H](Cc2ccccc2)C(=O)N[C@H](CCCNC(=N)N)C(=O)N[C@@H](CC(=O)O)C(N)=O)NC(=O)[C@H](Cc2ccccc2)NC(=O)[C@H](CCC(=O)O)NC(=O)[C@H]([C@@H](C)O)NC(=O)[C@@H]2CCCN2C(=O)[C@@H]2CCCN2C1=O [3BP-3212] (Ac-MCPPTEFCDHF[dR]D-NH2; linker 2-8 via mXylylene)

>  <pIC50>
> 8.00

$$$$
>  <COMPOUND>
CSCCC(N)C(=O)N[C@H]1CSCc2cccc(c2)CSC[C@@H](C(=O)N[C@@H](CC(=O)O)C(=O)N[C@@H](Cc2c[nH]cn2)C(=O)N[C@@H](Cc2ccccc2)C(=O)N[C@@H](CCCNC(=N)N)C(=O)N[C@@H](CC(=O)O)C(N)=O)NC(=O)[C@H](Cc2ccccc2)NC(=O)[C@H](CCC(=O)O)NC(=O)[C@H]([C@@H](C)O)NC(=O)[C@@H]2CCCN2C(=O)[C@@H]2CCCN2C1=O (stereo partly shown) [3BP-2976] (H-[ξM]CPPTEFCDHFRD-NH2; linker 2-8 via mXylylene)

>  <pIC50>
> 8.00

$$$$

# pIC50 of CCCCCC(=O)N[C@H]1CSCc2cccc(c2)CSC[C@@H](C(N)=O)NC(=O)[C@H](Cc2ccccc2)NC(=O)[C@H](CCC(=O)O)NC(=O)[C@H]([C@@H](C)O)NC(=O)[C@@H]2CCCN2C(=O)CNC1=O [3BP-3345] (Hexanoyl-CGPTEFC-NH2; linker 1-7 via mXylylene) = 7.10 to 8.00

pIC50 reading for CSCC[C@H](NC(C)=O)C(=O)N[C@H]1CSCc2cccc(c2)CSC[C@@H](C(=O)N[C@@H](CC(=O)O)C(=O)N[C@@H](Cc2c[nH]cn2)C(=O)N[C@@](C)(Cc2ccccc2)C(=O)N[C@@H](CCCNC(=N)N)C(=O)N[C@@H](CC(=O)O)C(N)=O)NC(=O)[C@H](Cc2ccccc2)NC(=O)[C@H](CCC(=O)O)NC(=O)[C@H]([C@@H](C)O)NC(=O)[C@@H]2CCCN2C(=O)[C@@H]2CCCN2C1=O [3BP-3203] (Ac-MCPPTEFCDH[αMeF]RD-NH2; linker 2-8 via mXylylene) : > 8.00

CCCCCC(=O)N[C@H]1CSCc2cccc(c2)CSC[C@@H](C(=O)N[C@@H](CC(=O)O)C(=O)NCCCOCCOCCOCCCNC(=O)CCC(=O)NCCCCCNC(=O)CN2CCN(CC(=O)O)CCN(CC(=O)O)CCN(CC(=O)O)CC2)NC(=O)[C@H](Cc2ccccc2)NC(=O)[C@H](CCC(N)=O)NC(=O)[C@H]([C@@H](C)O)NC(=O)[C@@H]2CCCN2C(=O)[C@@H]2CCCN2C1=O [3BP-3404] (Hexanoyl-CPPTQFCD-X47; linker 1-7 via mXylylene) has a reported pIC50 of > 8.00

# pIC50 of CCCCCC(=O)N[C@H]1CSCc2cccc(c2)CSC[C@@H](C(=O)N[C@@H](CC(=O)O)C(=O)NCCCNCCOCCOCCCNC(=O)CCC(=O)N[C@@H](CCCCNC(=O)CN2CCN(CC(=O)O)CCN(CC(=O)O)CCN(CC(=O)O)CC2)C(N)=O)NC(=O)[C@H](Cc2ccccc2)NC(=O)[C@H](CCC(=O)O)NC(=O)[C@H]([C@@H](C)O)NC(=O)[C@@H]2CCCN2C(=O)[C@@H]2CCCN2C1=O [3BP-3396] (Hexanoyl-CPPTEFCD-X19; linker 1-7 via mXylylene) = > 8.00

Reported pIC50 ( CCCCCC(=O)N[C@H]1CSCc2cc(cc(CN3CCN(C(=O)CN4CCN5CCN6CCN(CC4)CC(=O)[O][Ga]([O]C(=O)C6)[O]C(=O)C5)CC3)c2)CSC[C@@H](C(=O)N[C@@H](CC(=O)O)C(N)=O)NC(=O)[C@H](Cc2ccccc2)NC(=O)[C@H](CCC(N)=O)NC(=O)[C@H]([C@@H](C)O)NC(=O)[C@@H]2CCCN2C(=O)[C@@H]2CCCN2C1=O [3BP-3592] (Hexanoyl-CPPTQFCD-NH2; linker 1-7 via X8) ) = > 8.00

Values compiled from patent US20220315554A1.
